# experimentDescription: Surface tension in octanol-water-surfactant system, drop volume method (ISO 9101 modified)
# Type: physicochemical
# measurementSetup: deionised water in octanol, concentration 2 times the CMC
observationType: Surface tension
Don't forget the unit after the number, please.

1) CCCCCCCCCCCCOC(=O)c1ccc(S(=O)(=O)O)o1 [SAF-12, Sulfonated Dodecyl Furoate] :: 3.42 mN/m
2) CCCCCCCCOC(=O)c1ccc(S(=O)(=O)O)o1 [SAF-8, Sulfonated Octyl Furoate] :: 2.65 mN/m

Fill in: Surface tension of CCCCCCCCCCCCOS(=O)(=O)[O-].[Na+] [SDS, sodium dodecyl sulfate, reference compound] is ___
1.34 mN/m

---

# experimentDescription: Surface tension in octanol-water-surfactant system, drop volume method (ISO 9101 modified)
# Format: physicochemical
# measurementSetup: hard water (500 ppm CaCl2) in octanol, 4 times the CMC
# Procedure: The drop volume method was used to calculate the surface tension in the system following the ISO standard 9101 with some modifications. […] The diameter of the drop was measured, and the surface tension was calculated using the following equation: […] SAF-8 was evaluated using a concentration 2 times the CMC, while SAF-12 was evaluated at 2, 4 and 8 times the CMC.
observationType: Surface tension (mN/m)
Expressed in mN/m, but write only the number.

Fill in: Surface tension of CCCCCCCCCCCCOC(=O)c1ccc(S(=O)(=O)O)o1 [SAF-12, Sulfonated Dodecyl Furoate] is ___
3.78

---

# experimentDescription: Surface tension in octanol-water-surfactant system, drop volume method (ISO 9101 modified)
# Format: physicochemical
# measurementSetup: hard water (500 ppm CaCl2) in octanol, 2 times the CMC
# Protocol: The drop volume method was used to calculate the surface tension in the system following the ISO standard 9101 with some modifications. […] The diameter of the drop was measured, and the surface tension was calculated using the following equation: […] SAF-8 was evaluated using a concentration 2 times the CMC, while SAF-12 was evaluated at 2, 4 and 8 times the CMC.
observationType: Surface tension
Don't forget the unit after the number, please.

1) CCCCCCCCOC(=O)c1ccc(S(=O)(=O)O)o1 [SAF-8, Sulfonated Octyl Furoate] :: 1.91 mN/m

Fill in: Surface tension of CCCCCCCCCCCCOC(=O)c1ccc(S(=O)(=O)O)o1 [SAF-12, Sulfonated Dodecyl Furoate] is ___
4.51 mN/m
